Tested on: Kasumi-1
Assay: MTT cell viability assay, Kasumi-1
Type: cell-based
quantity-kind: CC50 (nM)
Numbers only, in nM.

Query: Field request: CC50 | item: O=C(CCCCCCC(=O)Nc1ccccc1)NO [SAHA, reference compound]
Reply: 917

###

System: MDA-MB-231 (estrogen-independent breast cancer)
Rule: GI50 below 400 nM gives Satisfied. Equal to or above 400 nM gives Not satisfied.

Some solved entries appear below for comparison.
>>> category("COc1ccc(S(=O)(=O)N2CCc3cc(C=CC(=O)NO)ccc32)cc1")
"Satisfied"
>>> category("COc1ccc(S(=O)(=O)n2ccc3cc(C=CC(=O)NO)ccc32)cc1OC")
"Satisfied"
>>> category("O=C(C=Cc1ccc2c(ccn2S(=O)(=O)c2ccccc2)c1)NO")
"Not satisfied"
>>> category("COc1ccc(S(=O)(=O)n2ccc3cc(C=CC(=O)NO)ccc32)cc1")
"Not satisfied"
>>> category("O=C(C=Cc1ccc2c(c1)CCN2S(=O)(=O)c1ccc([N+](=O)[O-])cc1)NO")
"Not satisfied"

Query: GI50 strictly < 400 nM for this molecule? O=C(C=Cc1ccc2c(c1)CCN2S(=O)(=O)c1ccc(F)cc1)NO
Reply: Satisfied

Query: GI50 strictly < 400 nM for this molecule? O=C(C=Cc1ccc2c(c1)CCN2S(=O)(=O)c1ccccc1)NO
Reply: Satisfied

Query: GI50 strictly < 400 nM for this molecule? O=C(C=Cc1ccc2c(ccn2S(=O)(=O)c2ccc([N+](=O)[O-])cc2)c1)NO
Reply: Not satisfied

Query: GI50 strictly < 400 nM for this molecule? COc1ccc(S(=O)(=O)N2CCc3cc(C=CC(=O)NO)ccc32)cc1OC
Reply: Satisfied

Query: GI50 strictly < 400 nM for this molecule? Nc1ccc(S(=O)(=O)n2ccc3cc(C=CC(=O)NO)ccc32)cc1
Reply: Not satisfied

Query: GI50 strictly < 400 nM for this molecule? Nc1ccc(S(=O)(=O)N2CCc3cc(C=CC(=O)NO)ccc32)cc1
Reply: Not satisfied

Query: GI50 strictly < 400 nM for this molecule? O=C(C=Cc1ccc2c(ccn2S(=O)(=O)c2ccc(F)cc2)c1)NO
Reply: Not satisfied
